# MEASUREMENT NOTES: E-selectin induction blockers in HUVEC – imaging, immunofluorescence, high content, primary screen (AID 1246)
# CONDITION LABEL: HUVEC TNFa-induced E-selectin immunofluorescence, at 2 µM
Screen size: about 120,000 compounds; about 840 (0.7%) were called active.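 Rule for the calls: active = inhibition above the batch mean plus 3 SD, and confirmed as a hit on visual image review (cut at about 43% in these data); inconclusive = passes the inhibition cutoff but fails visual image review; inactive = the rest.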 The sample holds actives, similar compounds and a random draw of the others, so the mix is not that of the screen.
// one of T for active, F for inactive, no free text

1. COc1ccc2c(c1OC)C(=O)OC2c1c(O)nc(SC)n(-c2ccccc2)c1=O (stereo unspecified): T
2. COC(=O)C(=Nc1ccccc1)/C(C(=O)C(=O)N(C)c1ccccc1)=C(\O)c1ccc(Cl)cc1: F
3. CC(=O)c1ccc(N=C2SCCCN2C(=O)C2CCCCC2)cc1: F
4. CCOC(=O)N1CCN(CCC(=O)Nc2cc(OC)ccc2OC)CC1: F

Query: Please indicate how the test categorized COc1ccc(-c2[nH]ncc2CN(C)Cc2cccnc2)c(F)c1 .
Response: F

Query: Which outcome did this test record for the molecule CCCCN(C(=O)/C=C/c1ccco1)c1c(N)n(CC(C)C)c(=O)[nH]c1=O ?
Response: F

Query: # fetch the recorded call for CCn1c(SC)nc(O)c(C(c2ccc(OC)c(O)c2)c2c(O)nc(SC)n(CC)c2=O)c1=O here
Response: F

Query: Please state the recorded outcome for this molecule: O=C(CC12CC3CC(CC(C3)C1)C2)NCc1ccco1
Response: F

Query: For COc1ccc(NC(=S)Nc2ccccc2Cl)cn1 , which call appears in the assay record?
Response: F

Query: Would you mind telling me which call this test gave CS(=O)(=O)n1nc(-c2ccco2)nc1N ?
Response: F

Query: How did this test come out for Cc1ccc2c(Cl)c(C(=O)Nc3nn[nH]n3)sc2c1 ?
Response: F
